Overview of recorded Ki for various compounds
system: purified PARP protein (Homo sapiens)
Sequence (P09874 whole entry): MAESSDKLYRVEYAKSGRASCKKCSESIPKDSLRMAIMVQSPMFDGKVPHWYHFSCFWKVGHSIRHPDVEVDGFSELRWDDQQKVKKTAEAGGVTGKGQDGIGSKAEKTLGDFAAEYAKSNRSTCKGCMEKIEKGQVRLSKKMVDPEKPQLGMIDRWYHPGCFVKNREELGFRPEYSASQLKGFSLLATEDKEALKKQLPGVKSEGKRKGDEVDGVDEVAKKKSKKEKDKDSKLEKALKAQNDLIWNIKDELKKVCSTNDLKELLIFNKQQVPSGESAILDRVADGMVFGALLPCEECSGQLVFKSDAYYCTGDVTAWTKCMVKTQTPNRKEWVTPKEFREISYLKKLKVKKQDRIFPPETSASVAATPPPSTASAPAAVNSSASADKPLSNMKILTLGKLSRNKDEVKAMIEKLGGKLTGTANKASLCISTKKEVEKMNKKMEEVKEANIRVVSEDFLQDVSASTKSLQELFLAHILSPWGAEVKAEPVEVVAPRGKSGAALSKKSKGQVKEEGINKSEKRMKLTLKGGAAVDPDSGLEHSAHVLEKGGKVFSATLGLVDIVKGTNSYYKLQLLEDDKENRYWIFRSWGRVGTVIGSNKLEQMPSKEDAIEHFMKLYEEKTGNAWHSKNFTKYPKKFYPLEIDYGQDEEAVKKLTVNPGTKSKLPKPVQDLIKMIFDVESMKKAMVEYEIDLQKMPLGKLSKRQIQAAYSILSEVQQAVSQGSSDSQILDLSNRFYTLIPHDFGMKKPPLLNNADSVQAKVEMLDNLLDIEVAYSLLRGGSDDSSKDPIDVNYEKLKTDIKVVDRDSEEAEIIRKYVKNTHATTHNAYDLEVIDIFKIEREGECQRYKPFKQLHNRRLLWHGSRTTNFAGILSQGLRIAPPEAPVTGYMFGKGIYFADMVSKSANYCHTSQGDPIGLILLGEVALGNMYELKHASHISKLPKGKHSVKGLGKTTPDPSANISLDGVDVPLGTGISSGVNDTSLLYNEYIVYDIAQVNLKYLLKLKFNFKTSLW
test.protocol: PARP enzyme inhibition assay
Type: biochemical
test.conditions: 20 nM purified PARP (5 nM for tight-binding inhibitors), 500 μM NAD+, 25° C.; several values in one cell = repeat determinations; read-out: Inhibition Constant Ki
Numbers only here, please. The scale is nM.

Past entries and their recorded results:
# compound, Ki / nM
data = [
    ("CCOC(=O)c1nc2cccc3c2n1CCNC3=O [Example 74]", 33),
    ("CC(c1ccc(-c2nc3cccc4c3n2CCNC4=O)cc1)N1CCCC1 (stereo not drawn) [Example 246]", 3.3),
    ("O=C1NCCn2c(-c3ccc(-c4ccccn4)cc3)nc3cccc1c32 [Example 126]", 4.1),
]

// query Tell me the measured Ki of O=C1NCCn2c(-c3ccc(CNCCCc4ccccc4)cc3)nc3cccc1c32 [Example 201] , please.
// result 5.8

// query Next record, please: O=C1NCCn2c(C(=O)NCc3ccccc3)nc3cccc1c32 [Example 110]
// result 18

// query Next record, please: CC1(C)CC2CC(C)(CN2Cc2ccc(-c3nc4cccc5c4n3CCNC5=O)cc2)C1 (stereo not drawn) [Example 215]
// result 11

// query Next record, please: O=C1NCCn2c(-c3ccc(Cn4ccnc4)cc3)nc3cccc1c32 [Example 213]
// result 7.4

// query Next record, please: C[C@H]1Cn2c(-c3ccc(CN4CC=CC4)cc3)nc3cccc(c32)C(=O)N1 [Example 223]
// result 8.5

// query Next record, please: O=C1NCCn2c(-c3ccc(CN4CCSCC4)cc3)nc3cccc1c32 [Example 105]
// result 6.2
